- assay-overview: yeast display, Sf9 membrane polyspecificity reagent, FACS + sequencing; frameworks hold sequencing errors
readout-label: polyreactivity (PSR sort gate)

INSERT INTO assay_data (sequence_string, readout_label, endpoint_value) VALUES
  ('QVQLVESGGGLVQAGGSLRLSCAASGITFPANAMGWYRQAPGKERELVADISESDGSTYYADSVKGRFTISLDNAKNTVYLQMNSLKPEDTAVYYCNAEWTSFDWGQGTQVTVSS', 'polyreactivity (PSR sort gate)', 'low polyreactivity'),
  ('QVQLVESGGGLVQAGGSLGLSCAASGYIFGIYAMGWYRQAAGKERELVAAISSDSTYYADSVKGRFTISRDNAKNTVYLQMNSLKPEDTAVYYCAPYWFNQDYEFEYWGQGTQVTVSS', 'polyreactivity (PSR sort gate)', 'high polyreactivity'),
  ('QVQLVESGGGLVQAGGSLLLSCAASGITSYYYAMGGYRQAPGKERELVAAITRGGRTKYADSVKGRFTISRDNAKNTVYLQMNSLKPEDTAVYYCAADVWGQGTQVTVSS', 'polyreactivity (PSR sort gate)', 'high polyreactivity'),
  ('QVQLVESGGGLVQAGGRLRLSCSASGRIFATYAMGWYRQAPGKERELVASISRRGGSTYYADSVKGRFTISRDNAKKTVYLQMNSLKPEDTAVYYCAKLFDTERGYNYWGQGTQVTVSS', 'polyreactivity (PSR sort gate)', 'high polyreactivity'),
  ('QVQLVESGGGLVQAGGSLRLSCAASGGIIDWYVMGWYSQARGKERELVAAISYNGGSTYYADSVKGRFTISRDNAKNTGYLQMNSLKPEDTAVYYCAAAVTWPYRYVWYDYWGQGTQVTVSS', 'polyreactivity (PSR sort gate)', 'low polyreactivity'),
  ('QVQLVESGGGLVQAGGSLRLSCAASGLTFIYYAMGWYRQARGKERELVAAISRSGGSTYYADSVKGRFTISRDNAKNTVYLQMNSLKPEDTAVYYCAADGTKYSGRVTGDYWGQGTQVTVSS', 'polyreactivity (PSR sort gate)', 'high polyreactivity'),
  ('QVQLVESGGGLVQAGGSLRLSCAASGSTFAANAMGWYRQAPGKERELVATISYRGGSTYYADSVKGRFTISRDNAKNTVYLQMNSLKPEDTAVYYCAAKLYYAFYSRYNYWGQGTQVTVSS', 'polyreactivity (PSR sort gate)', 'high polyreactivity'),
  ('QVQLVESGGGLVQAGGSLRLSCAASGSIFGYYAMGWYRKAPGKERELVAAISWSDGSTYYADSVKGRFTISRDNAKNTVYLQMNSLNPEDTAVYYCAARFTPYITSDDGHYDYWGQGTQVTVSS', 'polyreactivity (PSR sort gate)', 'low polyreactivity'),
  ('QVQLVESGGGLVQAGGSLRLSCAASGFTFKFYAMGWYRPAPGKERELVAAISSGGASTYYADSVKGRFTISRDNAKNTVYLQMNSLKPEDTAVYYFAARSGGPSDGSGYWGQGTEVTVSS', 'polyreactivity (PSR sort gate)', 'low polyreactivity'),
  ('QVQLVESGGGLVQAGGSLRLSCAASGRTLYNYTMGWYRQAPGKERELVATINFSGGSTYYADSVKGRFTISRDNAKNTVYLQMNSLKPEDTAVYYCNARGYHYAYKGAYLGDDYWGQGTQVTVSS', 'polyreactivity (PSR sort gate)', 'low polyreactivity'),
  ('QVQLVESGGGLVQAGGSLRLSCAASGITYRYAMGCYRQAPGKERELVAAITSSGASTYYADSVKGRFTISRDNAKNTVYLQMNSLKPEDTAVYYCATPLRKVYGGYEYWGQGTQVTVSS', 'polyreactivity (PSR sort gate)', 'low polyreactivity'),
  ('QVQLVESGGGLVQAGGSLRLSCAASGRIFSQYAMGWYRQAPGKERELVAAISRRTGSTYYADSVKVRFTISRDNAKNTVYLQMNSLKPDDTAVYFCNKARLGWSYRQDDYWGQGTQVTVSS', 'polyreactivity (PSR sort gate)', 'high polyreactivity'),
  ('QVQLVESGGGLVQEGGSLRLRCAASGRTFPINAMGWYRQAPGKERELVASIRWTDGTTYYADSVKGRFTISRDTAKNTVYLQMNSLKPEDTAVYYCAADAEGSASKYVYWGQGTQVTVSS', 'polyreactivity (PSR sort gate)', 'low polyreactivity'),
  ('QVQLVESGGGLVQAGGSLRLSCAASGATFPVYAMGWYRQAPGKEWELVAAISRSGASTYYADSVKGRFTISRDNAKNTVYLQMNSLKPEDTAVYYCARGYQGRLKYEYWGQGTQVNVSS', 'polyreactivity (PSR sort gate)', 'low polyreactivity'),
  ('QVKLEESGGGLVQAGGSLRLSCAASGSTFPGNAMGSYRQAPGKERELVAAINWSGDSTYYADSVKGRFTNSRDKPKNTVYLQMNSLTPEDTAVYYCAAYGDGYYYWGQGTQVTVSS', 'polyreactivity (PSR sort gate)', 'low polyreactivity'),
  ('QVQLVESWGGLVQAGGSLRLSCAASGSTLYQYDMGWYRHAPGKEREYLAAITTYGDSTYYADSVKGRFTISRDNAKNTVYLQMNSLKPEDTAVYYCNADVFKTVFYIDRYYYWGQGTQVTVSS', 'polyreactivity (PSR sort gate)', 'low polyreactivity'),
  ('QVQLVESGGGLVQAGGSLRLSCAASGFILNWYAMGWYRQAPGKERELVAAISWTTSDTYYADSVKGRFTISRDNAKNTVYLQMNSLKPEDTAVYYCNAKFYAYYVTFVLHYDYWGQGTQVTVSS', 'polyreactivity (PSR sort gate)', 'low polyreactivity'),
  ('QVQLVESGGGLVQAGRSLRISCAASGSIFVNNAMGWYRQAPGKERELVAAISLSGGSTYYADSVTGRFTISRDTAKNTVYLQMTSLKPEDTAVYYCATRRSHYGKYDYWGQGTQVTVSS', 'polyreactivity (PSR sort gate)', 'high polyreactivity'),
  ('QVQLVESWGGLVQAGGSLRLSCAASGSIFDVNAMGWYRQAPGKERELVAAISDSGGSTYYADSVKGRFTISRDNAKNTVYLQMNSLKPEDTAVYYCNADWSWYNYYDFDYWGQGTQVTVSS', 'polyreactivity (PSR sort gate)', 'low polyreactivity'),
  ('QVQLVESGGGLVQAGGSLRLICAASGNTFYGYAMGWYRQAPGKERELVASITLSGDSTYYADSVKGRFTISRDNAKNTVYLQMNSLKPEDTAVYYCNRARHQYSRWHGGYYYWGQGTQVTVSS', 'polyreactivity (PSR sort gate)', 'low polyreactivity'),
  ('QVQLVDSGGGLVQAGGSLLLSCAASGSISYQNAMGWYRQAPGKERELVAANSGDGDSTYYADSVKGRFTISRDNAKNTVYLQMNRLKPEDTAVYYCAAEPNVYFSVFVLFTSDYWGQGTLVTVSS', 'polyreactivity (PSR sort gate)', 'low polyreactivity');
